Sourced from patent US8178548B2

molecular target: HCV polymerase 1A (Δ21 NS5B, H77) (Hepatitis C virus genotype 1a, UniProt P27958); construct: 20 to 50 nM Δ21 NS5B; assay: biochemical
Sequence (P27958 2421-2990, stated change not applied): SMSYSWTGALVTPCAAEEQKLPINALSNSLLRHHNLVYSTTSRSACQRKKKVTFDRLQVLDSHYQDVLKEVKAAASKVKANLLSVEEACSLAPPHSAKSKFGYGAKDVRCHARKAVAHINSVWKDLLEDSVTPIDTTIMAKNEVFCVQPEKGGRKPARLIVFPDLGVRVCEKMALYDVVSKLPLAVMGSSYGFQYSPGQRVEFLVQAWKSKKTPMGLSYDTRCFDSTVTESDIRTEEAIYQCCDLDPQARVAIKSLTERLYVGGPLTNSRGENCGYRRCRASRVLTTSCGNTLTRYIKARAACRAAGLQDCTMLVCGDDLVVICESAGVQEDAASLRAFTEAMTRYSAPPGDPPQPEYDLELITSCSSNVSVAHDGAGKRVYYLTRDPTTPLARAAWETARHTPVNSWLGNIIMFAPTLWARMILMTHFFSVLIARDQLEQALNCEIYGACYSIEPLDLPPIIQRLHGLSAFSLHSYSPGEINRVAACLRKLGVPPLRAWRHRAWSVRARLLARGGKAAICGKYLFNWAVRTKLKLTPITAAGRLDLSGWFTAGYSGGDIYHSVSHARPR
measurement type: IC50

[[record]]
compound = "COc1c(/C=C/c2ccc(NS(C)(=O)=O)cc2C(=O)N(C)C2CCS(=O)(=O)C2)cc(-n2ccc(=O)[nH]c2=O)cc1C(C)(C)C (centres unmarked)"
measurement_type = "IC50"
result_value = "< 10 nM"

[[record]]
compound = "COc1c(/C=C/c2ccc(NS(C)(=O)=O)cc2C=O)cc(-n2ccc(=O)[nH]c2=O)cc1C(C)(C)C"
measurement_type = "IC50"
result_value = "< 10 nM"

[[record]]
compound = "COc1c(/C=C/c2ccc(NS(C)(=O)=O)cc2-c2ncco2)cc(-n2ccc(=O)[nH]c2=O)cc1C(C)(C)C"
measurement_type = "IC50"
result_value = "10 to 100 nM"

[[record]]
compound = "COc1c(/C=C/c2ccc(NS(C)(=O)=O)cc2)cc(-n2ccc(=O)[nH]c2=O)cc1-c1ccncc1"
measurement_type = "IC50"
result_value = "> 1000 nM"

[[record]]
compound = "COc1c(/C=C/c2ccc(NS(C)(=O)=O)cc2C(N)=O)cc(-n2ccc(=O)[nH]c2=O)cc1C(C)(C)C"
measurement_type = "IC50"
result_value = "< 10 nM"

[[record]]
compound = "COc1c(/C=C/c2ccc(NS(C)(=O)=O)cc2)cc(-n2ccc(=O)[nH]c2=O)cc1C(C)(C)CO"
measurement_type = "IC50"
result_value = "< 10 nM"


Query: Fill in: IC50 of `COc1c(I)cc(-n2ccc(=O)[nH]c2=O)cc1/C=C/c1ccc(NS(C)(=O)=O)cc1` is ___
Result: 10 to 100 nM

Query: One more compound: `COc1c(/C=C(\F)c2ccc(NS(C)(=O)=O)cc2)cc(N2CCC(=O)NC2=O)cc1C(C)(C)C`
Result: < 10 nM

Query: One more compound: `COc1ccc(/C=C/c2cc(N3CCC(=O)NC3=O)cc(C(C)(C)C)c2OC)cc1`
Result: > 1000 nM

Query: One more compound: `COc1c(/C=C/c2ccc(NS(C)(=O)=O)cc2N)cc(-n2ccc(=O)[nH]c2=O)cc1C(C)(C)C`
Result: 10 to 100 nM

Query: One more compound: `COc1c(/C=C/c2ccc(N(C(C)=O)S(C)(=O)=O)cc2)cc(N2CCC(=O)NC2=O)cc1C(C)(C)C`
Result: 10 to 100 nM

Query: One more compound: `COc1c(/C=C/c2ccc(NS(C)(=O)=O)cc2)cc(-n2ccc(=O)[nH]c2=O)cc1S(C)(=O)=O`
Result: 10 to 100 nM

Query: One more compound: `COc1c(/C=C(\Cl)c2ccc(NS(C)(=O)=O)cc2)cc(N2CCC(=O)NC2=O)cc1C(C)(C)C`
Result: < 10 nM

* * *

system: genotype 1b-Con1 subgenomic replicon cell line; assay: HCV Polymerase Replicon Assay, genotype 1b-Con1 (luciferase reporter); assay type: cell-based; settings: Hepatitis C virus, 72 h, read-out: EC50 1b
pEC50: −log10 of the molar value.
measurement type: pEC50

Query: Fill in: pEC50 of `COc1c(/C=C/c2ccc([N+](=O)[O-])cc2)cc(N2CCC(=O)NC2=O)cc1C(C)(C)C` is ___
Result: 6.00 to 7.00
